Biological target: L-lactate dehydrogenase A chain (Homo sapiens, UniProt P00338)
Assay: Inhibition of LDH-A (unknown origin) by enzyme assay
pIC50: −log10 of the molar value.
We use 3 as the dividing line for pIC50: on or above the line is Yes, below is No.

Lookup: Decide: pIC50 of O=C(O)COc1cc(F)cc(-c2ccc(C(=O)O)cn2)c1 >= 3?
Found: No

Lookup: Decide: pIC50 of Nc1cc(F)cc(-c2ccc(C(=O)O)cn2)c1 >= 3?
Found: No

Lookup: Decide: pIC50 of COc1ccc(Cl)cc1NC(=O)CSc1ccc(C(=O)O)cn1 >= 3?
Found: Yes

Lookup: Decide: pIC50 of COc1cc(OC[C@@H](O)[C@@H](O)[C@H](O)[C@H](O)CNc2cc(F)cc(-c3ccc(C(=O)O)cn3)c2)c(Cl)cc1NC(=O)CSc1ccccn1 >= 3?
Found: Yes

***
Lookup: Decide: pIC50 of COc1cc(OC[C@H](O)[C@H](O)[C@@H](O)[C@@H](O)COc2cc(F)cc(-c3ccc(C(=O)O)cn3)c2)c(Cl)cc1NC(=O)CSc1ccc(C(=O)O)cn1 >= 3?
Found: Yes

Lookup: Decide: pIC50 of COc1cc(OC[C@@H](O)[C@@H](O)[C@H](O)[C@H](O)COc2cc(F)cc(-c3ccc(C(=O)O)cn3)c2)c(Cl)cc1NC(=O)CSc1ccc(C(=O)O)cn1 >= 3?
Found: Yes
